- Tested on: Porphyromonas gingivalis
- testMethodNotes: Antimicrobial activity against Porphyromonas gingivalis by agar dilution method in presence of 5% laked sheep blood
- Format: functional
valueType: MIC90
A bare number is not enough; add the unit after it.

In the examples that follow, each entry is paired with its recorded MIC90.
compound: C[C@@H](O)[C@H]1C(=O)N2C(C(=O)O)=C(S[C@H]3C[C@@H](C(=O)N4CC[C@H](NC(=O)CNC(=N)N)C4)N(C)C3)[C@H](C)[C@H]12 [TOMOPENEM]
experimentalTarget: Porphyromonas gingivalis
MIC90: 0.06 µg/mL

compound: C[C@@H](O)[C@H]1C(=O)N2C(C(=O)O)=C(S[C@@H]3CN[C@H](CNS(N)(=O)=O)C3)[C@H](C)[C@H]12 [DORIPENEM]
experimentalTarget: Porphyromonas gingivalis
MIC90: 0.06 µg/mL

compound: CC(=N)N1CC[C@H](SC2=C(C(=O)O)N3C(=O)[C@H]([C@@H](C)O)[C@H]3C2)C1
experimentalTarget: Porphyromonas gingivalis
MIC90: 0.06 µg/mL

Qu. State the recorded MIC90 for this entry: C[C@@H](O)[C@H]1C(=O)N2C(C(=O)O)=C(S[C@@H]3CN[C@H](C(=O)N(C)C)C3)[C@H](C)[C@H]12 [MEROPENEM]
Ans. 0.03 µg/mL

Qu. And Cc1ncc([N+](=O)[O-])n1CCO [METRONIDAZOLE] ?
Ans. 0.25 µg/mL

====

- Tested on: Fusobacterium varium
- testMethodNotes: Antimicrobial activity against Fusobacterium varium by agar dilution method in presence of 5% laked sheep blood
- Assay type: functional
Measured MIC50 of individual entries

Recorded results for 4 compounds are shown here.
mol: CC(=N)N1CC[C@H](SC2=C(C(=O)O)N3C(=O)[C@H]([C@@H](C)O)[C@H]3C2)C1
experimentalTarget: Fusobacterium varium
MIC50: 0.125 µg/mL
//
mol: C[C@@H](O)[C@H]1C(=O)N2C(C(=O)O)=C(S[C@H]3C[C@@H](C(=O)N4CC[C@H](NC(=O)CNC(=N)N)C4)N(C)C3)[C@H](C)[C@H]12
experimentalTarget: Fusobacterium varium
MIC50: ≤ 0.015 µg/mL
//
mol: Cc1ncc([N+](=O)[O-])n1CCO
experimentalTarget: Fusobacterium varium
MIC50: ≤ 0.015 µg/mL
//
mol: C[C@@H](O)[C@H]1C(=O)N2C(C(=O)O)=C(S[C@@H]3CN[C@H](C(=O)N(C)C)C3)[C@H](C)[C@H]12
experimentalTarget: Fusobacterium varium
MIC50: 0.03 µg/mL

Qu. // map C[C@@H](O)[C@H]1C(=O)N2C(C(=O)O)=C(S[C@@H]3CN[C@H](CNS(N)(=O)=O)C3)[C@H](C)[C@H]12 to recorded MIC50 (system: Fusobacterium varium)
Ans. 0.03 µg/mL

====

- System: Staphylococcus saccharolyticus
- testMethodNotes: Antimicrobial activity against Staphylococcus saccharolyticus ATCC 14953 by agar dilution method in presence of 5% laked sheep blood
- Format: functional
valueType: MIC (µg/mL)
Give the value in µg/mL but do not write µg/mL after it.

molecule: C[C@@H](O)[C@H]1C(=O)N2C(C(=O)O)=C(S[C@@H]3CN[C@H](C(=O)N(C)C)C3)[C@H](C)[C@H]12 [MEROPENEM]
MIC [µg/mL]: 0.125

molecule: CCC[C@@H]1C[C@@H](C(=O)N[C@@H]([C@H]2O[C@H](SC)[C@H](O)[C@@H](O)[C@H]2O)[C@H](C)Cl)N(C)C1 [CLINDAMYCIN]
MIC [µg/mL]: 0.125

Now look at this one.
Qu. Any idea what its MIC is? The molecule is C[C@@H](O)[C@H]1C(=O)N2C(C(=O)O)=C(S[C@H]3C[C@@H](C(=O)N4CC[C@H](NC(=O)CNC(=N)N)C4)N(C)C3)[C@H](C)[C@H]12 [TOMOPENEM]
Ans. 0.06
